System: CCRF-CEM leukemia
Assay: NCI-60 one-dose screen, 48 h (100 = growth as untreated, 0 = no growth, -100 = all killed)
Conditions: 10 µM unless noted
The panel holds about 83,000 compounds, 20% with a hit somewhere; the sample as a whole holds those more often. Active and inactive are the calls of the source. How the source made its calls: active means growth percent below 10; inactive means the rest.
EXPERIMENTAL_READOUT: growth

Here is how some molecules turned out for growth.
CC(C)CSc1nc(Nc2ccccc2)c(C#N)c(-c2ccc(F)cc2)n1
31.1% (inactive)
C=C(C)[C@@H]1CC[C@]2(C(=O)N=C=S)CC[C@]3(C)[C@H](CC[C@@H]4[C@@]5(C)CCC(=O)C(C)(C)[C@@H]5CC[C@]43C)[C@@H]12
28.1% (inactive)
N#CC1(C#N)C2=C(CCCC2)NC(c2c(F)cccc2Cl)C1(C#N)C#N (centres undefined)
36.1% (inactive)

Continue with the next molecule.
[Q] Entry C=C1C(=O)O[C@H]2[C@H]1CC/C(COC(=O)c1cccnc1)=C\CC[C@@]1(C)O[C@@H]21 needs its growth filled in; supply it.
[A] 3.51% (active)
